Origin of measurements: patent US11447466B2

# Target Or Test System: human TLR9 (Homo sapiens)
# Sequence (Q9NR96 26-1032): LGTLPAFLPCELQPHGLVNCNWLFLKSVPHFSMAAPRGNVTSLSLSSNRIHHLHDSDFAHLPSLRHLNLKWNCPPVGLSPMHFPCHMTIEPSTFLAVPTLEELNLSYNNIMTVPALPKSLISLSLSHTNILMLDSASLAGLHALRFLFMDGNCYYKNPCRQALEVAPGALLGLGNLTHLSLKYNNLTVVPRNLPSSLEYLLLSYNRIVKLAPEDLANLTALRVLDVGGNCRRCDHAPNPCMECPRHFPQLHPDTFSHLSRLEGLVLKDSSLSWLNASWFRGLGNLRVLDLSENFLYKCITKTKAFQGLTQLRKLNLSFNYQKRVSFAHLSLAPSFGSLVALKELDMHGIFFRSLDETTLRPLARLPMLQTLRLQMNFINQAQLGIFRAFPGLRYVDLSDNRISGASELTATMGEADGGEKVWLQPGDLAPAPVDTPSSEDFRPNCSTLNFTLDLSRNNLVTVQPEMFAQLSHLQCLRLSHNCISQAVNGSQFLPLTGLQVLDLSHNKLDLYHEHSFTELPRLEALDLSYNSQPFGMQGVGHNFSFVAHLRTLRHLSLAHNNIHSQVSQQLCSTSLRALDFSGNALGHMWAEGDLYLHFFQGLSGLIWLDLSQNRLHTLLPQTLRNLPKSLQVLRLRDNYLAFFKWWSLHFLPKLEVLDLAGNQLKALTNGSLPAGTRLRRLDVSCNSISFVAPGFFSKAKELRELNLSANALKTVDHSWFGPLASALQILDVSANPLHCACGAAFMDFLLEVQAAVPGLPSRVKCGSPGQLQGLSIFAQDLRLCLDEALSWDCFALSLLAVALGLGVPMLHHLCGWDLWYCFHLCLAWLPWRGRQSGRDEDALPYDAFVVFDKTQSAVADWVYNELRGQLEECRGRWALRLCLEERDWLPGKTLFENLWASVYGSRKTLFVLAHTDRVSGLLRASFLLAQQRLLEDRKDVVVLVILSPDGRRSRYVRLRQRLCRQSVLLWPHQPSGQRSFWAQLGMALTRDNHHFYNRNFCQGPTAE
# Procedure Summary: TLR9 inhibition reporter assay (HEK-Blue SEAP reporter, ODN2006 stimulation)
# Run Parameters: HEK-Blue cells overexpressing human TLR9, SEAP reporter, ODN2006 5 nM, 22 hour incubation
# Source text: TLR7/8/9 Inhibition Reporter Assays HEK-Blue™-cells (Invivogen) overexpressing human TLR7, TLR8 or TLR9 receptors were used for screening inhibitors of these receptors using an inducible SEAP (secreted embryonic alkaline phosphatase) reporter gene under the control of the IFN-β minimal promoter fused to five NF-κB and AP-1-binding sites. […]
pIC50: −log10 of the molar value.
# maps each entry to its pIC50

- Compound: "CCCN1CCC(c2ccc3[nH]c(-c4cc(-c5cncc(C)c5)c(=O)n(C)c4)c(C(C)C)c3c2)CC1"
  pIC50: 6.10
- Compound: "Cc1c(-c2[nH]c3ccc(C4CCN(C(C)C(N)=O)CC4)cc3c2C(C)C)cn(C)c(=O)c1Cl (stereo not shown)"
  pIC50: 4.93
- Compound: "CCc1cc(-c2[nH]c3ccc(C4CCNCC4)cc3c2C(C)C)cn(CC)c1=O"
  pIC50: 5.27
- Compound: "Cc1c(-c2[nH]c3ccc(C4CCN(CC5CCOC5)CC4)cc3c2C(C)C)cn(C)c(=O)c1Cl (stereo not shown) [Example 254]"
  pIC50: 5.57
